Origin of the recorded values: ChEMBL document CHEMBL1141103

molecular target: Insulin-like growth factor 1 receptor (Homo sapiens)
Sequence (P08069 31-736 limits assumed): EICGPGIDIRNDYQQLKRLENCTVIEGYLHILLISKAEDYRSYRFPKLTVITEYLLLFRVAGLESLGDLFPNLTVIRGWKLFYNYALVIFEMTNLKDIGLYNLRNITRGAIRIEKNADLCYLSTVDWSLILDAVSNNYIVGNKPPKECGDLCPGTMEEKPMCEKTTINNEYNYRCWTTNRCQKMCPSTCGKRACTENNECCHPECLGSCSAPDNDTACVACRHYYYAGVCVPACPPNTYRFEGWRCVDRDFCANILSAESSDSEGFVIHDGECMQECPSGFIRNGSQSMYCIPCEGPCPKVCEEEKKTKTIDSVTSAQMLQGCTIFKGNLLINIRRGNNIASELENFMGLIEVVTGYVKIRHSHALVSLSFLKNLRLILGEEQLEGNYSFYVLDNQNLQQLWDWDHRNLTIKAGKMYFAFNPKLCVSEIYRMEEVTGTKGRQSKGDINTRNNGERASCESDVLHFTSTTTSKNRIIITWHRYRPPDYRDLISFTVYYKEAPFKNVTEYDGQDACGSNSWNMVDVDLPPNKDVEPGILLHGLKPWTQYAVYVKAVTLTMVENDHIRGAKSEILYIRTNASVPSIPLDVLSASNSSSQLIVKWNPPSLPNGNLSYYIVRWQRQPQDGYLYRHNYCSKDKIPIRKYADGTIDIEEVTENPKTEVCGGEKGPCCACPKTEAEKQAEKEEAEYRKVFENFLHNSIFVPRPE
Sequence (P08069 741-1367 limits assumed): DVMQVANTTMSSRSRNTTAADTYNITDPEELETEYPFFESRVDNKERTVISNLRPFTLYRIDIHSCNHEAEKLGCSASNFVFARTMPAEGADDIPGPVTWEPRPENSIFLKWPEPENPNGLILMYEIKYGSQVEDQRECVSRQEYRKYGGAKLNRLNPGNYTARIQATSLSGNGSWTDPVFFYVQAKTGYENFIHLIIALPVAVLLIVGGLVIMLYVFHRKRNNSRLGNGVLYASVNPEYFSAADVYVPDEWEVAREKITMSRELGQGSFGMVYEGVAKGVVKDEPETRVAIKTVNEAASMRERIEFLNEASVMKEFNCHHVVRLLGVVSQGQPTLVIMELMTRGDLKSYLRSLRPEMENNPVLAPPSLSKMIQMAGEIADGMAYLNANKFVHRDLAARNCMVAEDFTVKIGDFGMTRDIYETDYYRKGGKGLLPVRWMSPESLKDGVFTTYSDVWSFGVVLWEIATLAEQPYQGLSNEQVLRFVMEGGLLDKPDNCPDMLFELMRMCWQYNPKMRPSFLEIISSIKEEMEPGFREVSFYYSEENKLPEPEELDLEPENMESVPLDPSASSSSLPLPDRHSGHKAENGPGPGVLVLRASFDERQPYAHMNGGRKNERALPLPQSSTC
pIC50: −log10 of the molar value.

{"SMILES_INPUT": "Cc1ccc(C(=O)Nc2ccon2)cc1Nc1ncnc(NC2CCCC2)c1C#N", "TESTED_SYSTEM": "Insulin-like growth factor 1 receptor (Homo sapiens)", "pIC50": "< 4.30"}

---

system: PBMC; assay: Concentration required to inhibit LPS-induced TNFalpha production in human peripheral blood mononuclear cells; n=3; format: functional, cell-based
pIC50: −log10 of the molar value.
Each entry below lists one item and its recorded pIC50 value.
MEASURE: pIC50

{"SMILES_INPUT": "CONC(=O)c1ccc(C)c(Nc2ncnc(NC(C)C)c2C#N)c1", "VALUE_REPORTED": 5.34}
{"SMILES_INPUT": "CNc1nc(Nc2cc(C(=O)NOC)ccc2C)c(C#N)c(N(C)CC(C)(C)C)n1", "VALUE_REPORTED": 4.19}
{"SMILES_INPUT": "CONC(=O)c1ccc(C)c(Nc2ncnc(NC3CCCC3)c2C#N)c1", "VALUE_REPORTED": 5.39}
{"SMILES_INPUT": "Cc1ccc(C(=O)Nc2ccon2)cc1Nc1nc(N)nc(NC(C)C)c1C#N", "VALUE_REPORTED": 4.74}
{"SMILES_INPUT": "CCn1nccc1NC(=O)c1ccc(C)c(Nc2ncnc(NC3CCCC3)c2C#N)c1", "VALUE_REPORTED": 4.14}
{"SMILES_INPUT": "CONC(=O)c1ccc(C)c(Nc2ncnc(N(C)CC(C)(C)C)c2C#N)c1", "VALUE_REPORTED": 4.38}
{"SMILES_INPUT": "CONC(=O)c1ccc(C)c(Nc2nc(N)nc(N(C)CC(C)(C)C)c2C#N)c1", "VALUE_REPORTED": 4.77}
{"SMILES_INPUT": "CCn1nccc1NC(=O)c1ccc(C)c(Nc2nc(N)nc(NC(C)C)c2C#N)c1", "VALUE_REPORTED": 4.17}
{"SMILES_INPUT": "CCn1nccc1NC(=O)c1ccc(C)c(Nc2nc(N)nc(NC3CCCC3)c2C#N)c1", "VALUE_REPORTED": 4.68}
{"SMILES_INPUT": "Cc1ccc(C(=O)Nc2ccon2)cc1Nc1ncnc(NC2CCCC2)c1C#N", "VALUE_REPORTED": 5.46}

---

biological target: Tyrosine-protein kinase SYK (Homo sapiens, UniProt P43405)
pIC50: −log10 of the molar value.

{"SMILES_INPUT": "Cc1ccc(C(=O)Nc2ccon2)cc1Nc1ncnc(NC2CCCC2)c1C#N", "TESTED_SYSTEM": "Tyrosine-protein kinase SYK (Homo sapiens, UniProt P43405)", "pIC50": "< 4.30"}

---

assay: Clearance of compound in mice after intravenous administration; assay type: ADME, organism-based; settings: mouse, in vivo

{"SMILES_INPUT": "Cc1ccc(C(=O)Nc2ccon2)cc1Nc1ncnc(NC(C)C)c1C#N", "clearance (mL/min/kg)": 28.3}

---

biological target: Mitogen-activated protein kinase 11 (Homo sapiens); test: Inhibitory concentration against p38 beta
Sequence (Q15759 whole entry): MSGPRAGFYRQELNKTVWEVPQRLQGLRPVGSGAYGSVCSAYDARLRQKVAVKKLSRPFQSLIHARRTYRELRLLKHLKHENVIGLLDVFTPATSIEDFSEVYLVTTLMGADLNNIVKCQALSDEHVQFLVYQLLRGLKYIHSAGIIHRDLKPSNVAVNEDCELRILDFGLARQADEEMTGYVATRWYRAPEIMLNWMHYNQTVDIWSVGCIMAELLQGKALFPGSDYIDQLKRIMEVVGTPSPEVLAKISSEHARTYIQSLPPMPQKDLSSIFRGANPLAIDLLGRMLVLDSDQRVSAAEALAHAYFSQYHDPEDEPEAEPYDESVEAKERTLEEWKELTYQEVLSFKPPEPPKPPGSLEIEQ
pIC50: −log10 of the molar value.
MEASURE: pIC50

{"SMILES_INPUT": "Cc1ccc(C(=O)Nc2ccon2)cc1Nc1ncnc(NC2CCCC2)c1C#N", "MEASURE": "pIC50", "VALUE_REPORTED": "> 7.00"}
